Details: Liquid; pulse heating to limit of superheat
Measured parameter: Critical temperature (K)
Value expressed in K; do not type the unit.

For reference, reported Critical temperature for O=Cc1ccccc1C(=O)O [2-carboxybenzaldehyde] stands at 864

For reference, reported Critical temperature for CCCCCCCCCCCCCC(=O)OC [methyl tetradecanoate] stands at 730

For reference, reported Critical temperature for CC(C)(CO)CO [2,2-dimethyl-1,3-propanediol] stands at 687

For reference, reported Critical temperature for CCCCCCCCCCCCCCCC(=O)OC [methyl hexadecanoate] stands at 760

For reference, reported Critical temperature for OCCCO [propan-1,3-diol] stands at 721

For reference, reported Critical temperature for Cc1ccc(C=O)cc1 [4-methylbenzaldehyde] stands at 712

For reference, reported Critical temperature for CCCCCCCCCCCCCCCCCC(=O)OC [methyl octadecanoate] stands at 785

For reference, reported Critical temperature for CCCCCCCC/C=C\CCCCCCCC(=O)OC [methyl cis-9-octadecenoate] stands at 777

For reference, reported Critical temperature for Cc1ccc(C(=O)O)cc1 [4-methylbenzoic acid] stands at 775

For reference, reported Critical temperature for Cc1cccc(C(=O)O)c1 [3-methylbenzoic acid] stands at 771

For reference, reported Critical temperature for O=Cc1ccccc1 [benzaldehyde] stands at 692

* * *

Conditions: Liquid; pulse heating to limit of superheat
Measured parameter: Critical temperature (K)
Value expressed in K; do not type the unit.

For reference, reported Critical temperature for Cc1ccccc1C(=O)O [2-methylbenzoic acid] stands at 763

For reference, reported Critical temperature for O=C(O)c1ccccc1 [benzoic acid] stands at 755

For reference, reported Critical temperature for OCc1ccccc1 [benzenemethanol] stands at 713

For reference, reported Critical temperature for Cc1ccc(CO)cc1 [1-(hydroxymethyl)-4-methylbenzene] stands at 719

* * *

Conditions: Liquid; pulse heating to limit of superheat
Numbers after ± are expanded uncertainties.
Measured parameter: Critical pressure
In your response, the unit should come after the numeric value.

For reference, reported Critical pressure for CCCCCCCC/C=C\CCCCCCCC(=O)OC [methyl cis-9-octadecenoate] stands at 1210 ± 80 kPa

For reference, reported Critical pressure for OCCCO [propan-1,3-diol] stands at 6380 ± 520 kPa

For reference, reported Critical pressure for O=Cc1ccccc1C(=O)O [2-carboxybenzaldehyde] stands at 4800 ± 300 kPa

For reference, reported Critical pressure for Cc1ccc(CO)cc1 [1-(hydroxymethyl)-4-methylbenzene] stands at 3610 ± 200 kPa

For reference, reported Critical pressure for Cc1cccc(C(=O)O)c1 [3-methylbenzoic acid] stands at 3850 ± 240 kPa

For reference, reported Critical pressure for Cc1ccc(C(=O)O)cc1 [4-methylbenzoic acid] stands at 3800 ± 200 kPa

For reference, reported Critical pressure for O=Cc1ccccc1 [benzaldehyde] stands at 4410 ± 200 kPa

For reference, reported Critical pressure for CC(C)(CO)CO [2,2-dimethyl-1,3-propanediol] stands at 4200 ± 400 kPa

For reference, reported Critical pressure for OCc1ccccc1 [benzenemethanol] stands at 4330 ± 200 kPa

For reference, reported Critical pressure for CCCCCCCCCCCCCCCC(=O)OC [methyl hexadecanoate] stands at 1170 ± 80 kPa

For reference, reported Critical pressure for Cc1ccc(C=O)cc1 [4-methylbenzaldehyde] stands at 3800 ± 200 kPa

For reference, reported Critical pressure for Cc1ccccc1C(=O)O [2-methylbenzoic acid] stands at 3920 ± 240 kPa

* * *

Conditions: Liquid; pulse heating to limit of superheat
± gives the expanded uncertainty stated by the source.
Measured parameter: Critical pressure
In your response, the unit should come after the numeric value.

For reference, reported Critical pressure for `O=C(O)c1ccccc1` stands at 4530 ± 200 kPa

For reference, reported Critical pressure for CCCCCCCCCCCCCCCCCC(=O)OC [methyl octadecanoate] stands at 1080 ± 60 kPa

For reference, reported Critical pressure for CCCCCCCCCCCCCC(=O)OC [methyl tetradecanoate] stands at 1320 ± 80 kPa
